- TARGET_DESC: rat GABAA α2β2γ2 Receptors (Rattus norvegicus, UniProt P23576)
- Construct: expressed in transfected cells; pIRES Neo2 / Hygro2 / Puro2 vectors
- Sequence (P23576 29-451): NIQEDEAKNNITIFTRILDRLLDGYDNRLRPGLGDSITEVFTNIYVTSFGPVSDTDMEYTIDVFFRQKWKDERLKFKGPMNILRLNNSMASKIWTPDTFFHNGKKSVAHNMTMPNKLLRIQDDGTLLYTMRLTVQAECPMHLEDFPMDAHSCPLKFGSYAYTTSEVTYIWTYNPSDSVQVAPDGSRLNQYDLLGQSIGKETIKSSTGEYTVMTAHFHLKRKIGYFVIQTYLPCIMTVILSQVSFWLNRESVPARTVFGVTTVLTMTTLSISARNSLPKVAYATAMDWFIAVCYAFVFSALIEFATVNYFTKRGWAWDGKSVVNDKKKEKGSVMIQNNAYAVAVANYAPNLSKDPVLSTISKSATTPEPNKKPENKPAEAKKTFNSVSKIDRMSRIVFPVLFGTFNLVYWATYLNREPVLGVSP
- Sequence (P63138 25-474 partner limits assumed): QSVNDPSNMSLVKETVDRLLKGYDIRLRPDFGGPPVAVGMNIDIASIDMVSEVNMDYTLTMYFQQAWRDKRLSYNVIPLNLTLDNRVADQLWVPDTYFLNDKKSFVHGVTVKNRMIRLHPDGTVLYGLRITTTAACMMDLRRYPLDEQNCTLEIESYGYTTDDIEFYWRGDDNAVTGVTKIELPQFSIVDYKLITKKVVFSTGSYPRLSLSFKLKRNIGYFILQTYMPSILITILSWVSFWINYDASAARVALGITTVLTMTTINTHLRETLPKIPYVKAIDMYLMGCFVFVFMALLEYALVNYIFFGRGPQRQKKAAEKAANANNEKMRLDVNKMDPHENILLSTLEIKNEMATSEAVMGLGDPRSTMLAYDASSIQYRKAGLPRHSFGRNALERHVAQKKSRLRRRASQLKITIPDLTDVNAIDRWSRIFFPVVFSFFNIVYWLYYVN
- Sequence (P18508 39-466 partner): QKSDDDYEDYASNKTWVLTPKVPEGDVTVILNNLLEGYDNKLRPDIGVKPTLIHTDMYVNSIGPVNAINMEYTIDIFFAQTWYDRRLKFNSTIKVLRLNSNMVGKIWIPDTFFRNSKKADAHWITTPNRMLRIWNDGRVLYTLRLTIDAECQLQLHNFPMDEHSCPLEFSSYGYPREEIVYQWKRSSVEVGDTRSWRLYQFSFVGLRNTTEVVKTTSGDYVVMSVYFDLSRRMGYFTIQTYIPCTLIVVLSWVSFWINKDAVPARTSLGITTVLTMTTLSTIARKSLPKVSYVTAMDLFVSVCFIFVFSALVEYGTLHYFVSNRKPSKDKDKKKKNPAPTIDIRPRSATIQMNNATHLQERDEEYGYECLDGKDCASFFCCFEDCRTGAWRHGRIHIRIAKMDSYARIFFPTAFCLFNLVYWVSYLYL
- EXPERIMENT_NOTES: PatchXpress 7000A automated parallel patch-clamp: potentiation of GABA EC20 current in HEK293 cells
- Assay type: cell-based
- STATED_CONDITIONS: percent increase in mean GABA EC20 current response; HEK293 cells stably expressing rat GABAA α2β2γ2; voltage-clamped at −60 mV; read-out: GABAA α2 EP EMAX (%)
Counter-ions that a name gives are not always drawn.
METRIC_NAME: Emax

Input line: Could you please provide reported Emax for C#Cc1ccc2c(c1)C(c1ccccc1)=NCc1c(C(=O)NC[C@H](C)O)ncn1-2 ? Thanks!
Output line: 300 to 400%

Input line: Could you please provide reported Emax for C#Cc1ccc2c(c1)C(c1ccccc1)=NCc1c(C(=O)NCC3CCCO3)ncn1-2 (stereo not shown) [Example 36, dihydrochloride] ? Thanks!
Output line: 300 to 400%

Input line: Could you please provide reported Emax for C#Cc1ccc2c(c1)C(c1ccccc1)=NCc1c(C(=O)NCCOC(C)=O)ncn1-2 [Example 32, acetate dihydrochloride] ? Thanks!
Output line: 300 to 400%

Input line: Could you please provide reported Emax for C#Cc1ccc2c(c1)C(c1ccccc1)=NCc1c(C(=O)N3CCN(c4ncccn4)CC3)ncn1-2 ? Thanks!
Output line: 200 to 300%

Input line: Could you please provide reported Emax for C#Cc1ccc2c(c1)C(c1ccccc1)=NCc1c(C(=O)NCCCCO)ncn1-2 [Example 31, dihydrochloride] ? Thanks!
Output line: 300 to 400%

Input line: Could you please provide reported Emax for C#Cc1ccc2c(c1)C(c1ccccc1)=NCc1c(C(=O)N(CC)CC)ncn1-2 ? Thanks!
Output line: 400 to 500%

Input line: Could you please provide reported Emax for C#Cc1ccc2c(c1)C(c1ccccc1)=NCc1c(C(=O)NCc3ccco3)ncn1-2 [Example 35, dihydrochloride] ? Thanks!
Output line: 200 to 300%

* * *

Kindly supply the reported Emax values for the records listed here.
- TARGET_DESC: rat GABAA α2β2γ2 Receptors (Rattus norvegicus, UniProt P23576)
- Construct: expressed in transfected cells; pIRES Neo2 / Hygro2 / Puro2 vectors
- EXPERIMENT_NOTES: PatchXpress 7000A automated parallel patch-clamp: potentiation of GABA EC20 current in HEK293 cells
- Format: cell-based
- STATED_CONDITIONS: percent increase in mean GABA EC20 current response; HEK293 cells stably expressing rat GABAA α2β2γ2; voltage-clamped at −60 mV; read-out: GABAA α2 EP EMAX (%)
Structures can show the parent of a compound that is named as a salt.

Input line: Could you please provide reported Emax for C#Cc1ccc2c(c1)C(c1ccccc1)=NCc1c(C(=O)NC(COC)COC)ncn1-2 ? Thanks!
Output line: 200 to 300%

Input line: Could you please provide reported Emax for C#Cc1ccc2c(c1)C(c1ccccc1)=NCc1c(C(N)=O)ncn1-2 ? Thanks!
Output line: 300 to 400%

Input line: Could you please provide reported Emax for C#Cc1ccc2c(c1)C(c1ccccc1)=NCc1c(C(=O)NC(C)COC)ncn1-2 (stereo not shown) ? Thanks!
Output line: 200 to 300%

Input line: Could you please provide reported Emax for C#Cc1ccc2c(c1)C(c1ccccc1)=NCc1c(C(=O)NCC)ncn1-2 [Example 2, dihydrochloride] ? Thanks!
Output line: 300 to 400%
